# STUDY TARGET: VIM-2 (Pseudomonas aeruginosa, UniProt Q9K2N0)
# ASSAY SUMMARY: VIM-2 enzyme-inhibition assay with nitrocefin as substrate (UV-Vis, 482 nm)
pIC50: −log10 of the molar value.

{"SMILES ENTRY": "O=C(CSc1nnc(-c2ccccc2C(=O)O)[nH]1)Nc1nc2ccccc2[nH]1", "STUDY TARGET": "VIM-2 (Pseudomonas aeruginosa, UniProt Q9K2N0)", "pIC50": 4.23}
{"SMILES ENTRY": "O=C(CSc1nnc(-c2ccccc2C(=O)O)[nH]1)Nc1cccc(Cl)c1", "STUDY TARGET": "VIM-2 (Pseudomonas aeruginosa, UniProt Q9K2N0)", "pIC50": 4.69}
{"SMILES ENTRY": "O=C(CSc1nnc(-c2ccccc2C(=O)O)[nH]1)Nc1cccc([N+](=O)[O-])c1", "STUDY TARGET": "VIM-2 (Pseudomonas aeruginosa, UniProt Q9K2N0)", "pIC50": 4.24}
{"SMILES ENTRY": "O=C(CSc1nnc(-c2ccccc2C(=O)O)[nH]1)Nc1nc2ccccc2s1", "STUDY TARGET": "VIM-2 (Pseudomonas aeruginosa, UniProt Q9K2N0)", "pIC50": 4.31}

Hey, just so you know, these numbers are from paper PMC7022493.
